# Assay Target: estrogen receptor alpha (ERα) (Homo sapiens)
# Sequence (P03372 with tags, fused parts or gaps limits assumed): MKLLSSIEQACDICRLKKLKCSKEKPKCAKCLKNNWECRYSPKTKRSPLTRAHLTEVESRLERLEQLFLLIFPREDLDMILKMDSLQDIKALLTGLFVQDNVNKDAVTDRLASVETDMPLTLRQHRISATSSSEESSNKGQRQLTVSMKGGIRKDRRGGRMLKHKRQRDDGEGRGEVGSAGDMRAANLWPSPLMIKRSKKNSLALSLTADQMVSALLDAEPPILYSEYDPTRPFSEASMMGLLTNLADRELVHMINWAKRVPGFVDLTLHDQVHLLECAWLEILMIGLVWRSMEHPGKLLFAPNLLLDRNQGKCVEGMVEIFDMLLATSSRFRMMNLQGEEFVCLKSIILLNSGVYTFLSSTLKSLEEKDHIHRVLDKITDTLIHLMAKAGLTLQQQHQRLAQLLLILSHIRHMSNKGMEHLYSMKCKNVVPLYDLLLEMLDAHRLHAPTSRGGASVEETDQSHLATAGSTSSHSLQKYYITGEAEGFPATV
# Assay Procedure: ERα-bla reporter gene assay (agonist and antagonist modes)
Quantity Measured: ERα activity

Exam item: Need ERα activity of COC(=O)C1=C(C)NC(COC(N)=O)=C(C(=O)OC(C)C)C1c1cccc(Cl)c1Cl (stereo not shown) , thanks.
Marked response: activated

Exam item: # get_value(readout='ERα activity', item= "CCOC(=O)C1=C(C)NC(C)=C(C(=O)OCC)C1c1ccccc1/C=C/C(=O)OC(C)(C)C" )
Marked response: activated

Exam item: Which value of ERα activity has been reported for "COc1cc2c(c(OC)c1OC)-c1ccc(OC)c(=O)cc1[C@@H](NC(C)=O)CC2" in the records?
Marked response: antagonized

Exam item: Fill blank: measured ERα activity of the compound "COC1=CC(=O)C[C@@H](C)[C@]12Oc1c(Cl)c(OC)cc(OC)c1C2=O" is ____.
Marked response: antagonized
